experiment: 7-day pilot intranasal toxicity and toxicokinetic study in rats; conditions: female, rat, plasma, inhaled or intranasal, 3.6 mg/day, Cmax, Female, Day 7, 3.6 mg/day (2%), intranasal TID
readout: Cmax (ng/mL)
Reply with just the number (in ng/mL).

Q: Report Cmax for C(=C\[C@H]1CCNC1)/c1cncnc1 please.
Ans: 79.9

====

target: a4b4 (Homo sapiens, UniProt P30926+P43681); experiment: Receptor binding a4b4
Sequence (P43681 29-627 limits assumed): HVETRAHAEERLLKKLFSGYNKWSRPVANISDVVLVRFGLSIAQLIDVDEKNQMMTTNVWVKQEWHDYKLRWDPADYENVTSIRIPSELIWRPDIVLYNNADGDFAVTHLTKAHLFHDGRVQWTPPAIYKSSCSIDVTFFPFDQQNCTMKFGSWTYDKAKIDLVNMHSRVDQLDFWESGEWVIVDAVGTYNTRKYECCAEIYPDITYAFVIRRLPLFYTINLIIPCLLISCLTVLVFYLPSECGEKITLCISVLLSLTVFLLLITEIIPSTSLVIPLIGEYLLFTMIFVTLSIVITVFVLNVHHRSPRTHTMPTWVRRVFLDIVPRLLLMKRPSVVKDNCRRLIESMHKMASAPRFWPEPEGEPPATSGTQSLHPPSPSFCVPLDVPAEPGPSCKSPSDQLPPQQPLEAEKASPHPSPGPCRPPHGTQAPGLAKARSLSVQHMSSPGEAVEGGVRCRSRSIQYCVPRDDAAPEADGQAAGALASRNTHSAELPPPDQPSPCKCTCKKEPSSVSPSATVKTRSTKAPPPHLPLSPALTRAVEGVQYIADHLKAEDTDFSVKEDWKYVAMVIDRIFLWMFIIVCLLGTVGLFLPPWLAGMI
Sequence (P30926 22-498): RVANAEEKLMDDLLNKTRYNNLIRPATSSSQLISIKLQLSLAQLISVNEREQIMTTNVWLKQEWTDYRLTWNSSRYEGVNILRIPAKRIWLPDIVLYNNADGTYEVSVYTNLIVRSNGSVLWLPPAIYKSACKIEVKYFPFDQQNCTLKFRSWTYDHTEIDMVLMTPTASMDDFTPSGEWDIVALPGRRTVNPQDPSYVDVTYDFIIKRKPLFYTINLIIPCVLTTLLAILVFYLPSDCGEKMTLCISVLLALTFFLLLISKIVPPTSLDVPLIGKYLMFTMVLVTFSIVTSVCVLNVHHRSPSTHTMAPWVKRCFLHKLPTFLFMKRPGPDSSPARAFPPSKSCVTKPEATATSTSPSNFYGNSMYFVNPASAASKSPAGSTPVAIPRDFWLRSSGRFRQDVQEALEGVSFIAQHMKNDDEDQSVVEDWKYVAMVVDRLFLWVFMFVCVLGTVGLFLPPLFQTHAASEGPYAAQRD
readout: Ki
Write the quantity with the unit trailing the number.

Q: Quick one: Ki for C(=C\[C@H]1CCNC1)/c1cncnc1 ?
Ans: 680 nM

====

experiment: 7-day pilot intranasal toxicity and toxicokinetic study in rats; settings: male, rat, plasma, inhaled or intranasal, 3.6 mg/day, Cmax, Male, Day 1, 3.6 mg/day (2%), intranasal TID
readout: Cmax (ng/mL)
Write the answer as a number in ng/mL, unit excluded.

Q: # get_value(readout='Cmax', item= C(=C\[C@H]1CCNC1)/c1cncnc1 )
Ans: 343

====

test: Single dose pharmacokinetics, rat; type: in vivo, Sprague-Dawley rat; conditions: Sprague-Dawley, plasma; S-D rat, 30 mg/kg [14C]-Compound 1, oral
readout: Cmax (µg/mL)
// return numeric value only (unit: µg/mL, not printed)

Q: Fill in the blank: the reported Cmax of C(=C\[C@H]1CCNC1)/c1cncnc1 [Compound 1] is ____.
Ans: 1.71

====

assay: 13-week repeat-dose oral toxicity in rats; type: in vivo, rat; conditions: both sexes, in vivo; 13-week rat study, oral, as summarised
readout: NOAEL at 13 weeks (mg/kg)
Use mg/kg as the unit, but write only the number.

Q: What value of NOAEL at 13 weeks has been recorded for this entry: C(=C\[C@H]1CCNC1)/c1cncnc1
Ans: 30

====

assay: 7-day pilot intranasal toxicity and toxicokinetic study in rats; details: female, rat, plasma, inhaled or intranasal, 10.8 mg/day, AUC0-t, Female, Day 1, 10.8 mg/day (6%), intranasal TID
readout: AUC(0-t) (ng·h/mL)
Report the figure in ng·h/mL without appending any unit label.

Q: Would you kindly share the measured AUC(0-t) for C(=C\[C@H]1CCNC1)/c1cncnc1 [Compound 1] ?
Ans: 4170

====

test: Single dose pharmacokinetics, rat; format: in vivo, Sprague-Dawley rat; conditions: male, Sprague-Dawley, plasma; S-D rat, 3 mg/kg Compound 1, oral; read-out: t1/2 (converted)
readout: half-life (h)
Form entry: value (h) — number only.

Q: Given C(=C\[C@H]1CCNC1)/c1cncnc1 [Compound 1] , state its recorded half-life.
Ans: 1.4

====

target: α7 nicotinic acetylcholine receptor (Rattus norvegicus, UniProt Q05941); construct: from tissue; host or cells: rat brain membranes (per the earlier reading); experiment: Receptor binding α7, inhibition of [3H]-MLA binding, rat brain membranes; settings: Rat a7, assay and tissue type not given
Sequence (Q05941 23-502): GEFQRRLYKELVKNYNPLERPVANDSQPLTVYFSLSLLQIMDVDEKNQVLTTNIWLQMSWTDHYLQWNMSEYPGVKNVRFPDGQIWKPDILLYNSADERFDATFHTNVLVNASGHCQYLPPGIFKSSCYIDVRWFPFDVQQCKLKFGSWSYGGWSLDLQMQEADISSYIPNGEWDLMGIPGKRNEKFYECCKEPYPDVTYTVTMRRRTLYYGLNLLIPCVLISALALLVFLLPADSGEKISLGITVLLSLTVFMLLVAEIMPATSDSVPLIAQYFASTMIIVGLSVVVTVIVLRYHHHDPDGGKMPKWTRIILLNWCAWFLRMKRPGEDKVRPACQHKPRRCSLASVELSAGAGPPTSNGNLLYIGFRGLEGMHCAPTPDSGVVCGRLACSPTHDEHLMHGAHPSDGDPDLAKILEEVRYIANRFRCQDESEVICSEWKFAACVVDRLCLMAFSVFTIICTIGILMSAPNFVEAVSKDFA
readout: pKi
Just the number, please; pKi means minus log10 of the concentration in mol/L.

Q: What pKi value was documented for this molecule, C(=C\[C@H]1CCNC1)/c1cncnc1 ?
Ans: 5.46

====

assay: Cardiovascular safety, guinea pig iv; format: in vivo; details: guinea pig, in vivo; intravenous
readout: MTD

Q: Which MTD reading was recorded for the molecule C(=C\[C@H]1CCNC1)/c1cncnc1 [Compound 1] ?
Ans: 0.3 mg/kg

====

experiment: Single dose pharmacokinetics, mouse; format: in vivo, Swiss mouse; details: plasma; Swiss mouse, 1.0 mg/kg Compound 1, oral
readout: Cmax (ng/mL)
Report only the number, with the unit ng/mL understood.

Q: Item under review: C(=C\[C@H]1CCNC1)/c1cncnc1 . Reported Cmax?
Ans: 15

The measurements presented in this section are drawn from patent US10709707B2.
